System: HEK-293T
Measurement notes: Multiplex assay against HEK293T
Type: toxicity, cell-based
Experimental setup: human, 12 h, 10 µM, compound concentration 10 uM, replicate 1
Property name: Population Mitotic Cells (%)
Give the number first and the unit second.

Consider the reported Population Mitotic Cells (%) for these molecules:
• COc1ccc(-c2ccc3ncc4c(c3c2)n(-c2ccc(N3CCNCC3)c(C(F)(F)F)c2)c(=O)n4C)cn1.O=C(O)/C=C\C(=O)O [BGT-226] = 27%
• CCc1ccc(OCc2ccccc2C(=O)Nc2ccc3nc(C)cc(N)c3c2)cc1.Cl = 50%

Report Population Mitotic Cells (%) for every entry below.
1. Cc1cccc(CN2CCN(C(c3ccccc3)c3ccc(Cl)cc3)CC2)c1.Cl.Cl (stereo unspecified)
2. CC1=C(C(=O)Nc2cc3cn[nH]c3cc2F)C(c2ccc(C(F)(F)F)cc2)CC(=O)N1 (stereo unspecified)

1: 30%; 2: 61%

Report Population Mitotic Cells (%) for every entry below.
1. O=C(c1cc2c(cc1F)OC(c1ccc(F)cc1)(c1ccc(Cl)cc1Cl)O2)N1CCOCC1 (stereo unspecified)
2. COc1cc2ncn(-c3cc(OCc4ccccc4C(F)(F)F)c(C(N)=O)s3)c2cc1OC [GW843682X]
3. O=c1cc(N2CCOCC2)oc2c(-c3cccc4c3sc3ccccc34)cccc12
4. CCCSc1nc(N[C@@H]2C[C@H]2c2ccc(F)c(F)c2)c2nnn([C@@H]3C[C@H](OCCO)[C@@H](O)[C@H]3O)c2n1 [TICAGRELOR]
5. C=CC(=O)Nc1cccc(Sc2nc(Nc3ccc(N4CCN(C)CC4)cc3)ncc2Cl)c1
6. CC(C)(C)NC[C@H](O)COc1nsnc1N1CCOCC1 [TIMOLOL]
7. CC(C)OC(=O)N1CCC(Oc2ncnc3c2cnn3-c2ccc(S(C)(=O)=O)cc2F)CC1

1: 35%; 2: 42%; 3: 38%; 4: 31%; 5: 78%; 6: 44%; 7: 46%

Report Population Mitotic Cells (%) for every entry below.
1. CN1CCN(Cc2ccc(Nc3ncc(Cl)c(Nc4ccccc4S(=O)(=O)N(C)C)n3)cc2)CC1 [DUBERMATINIB]
2. C[C@]12CC[C@@H]3c4ccc(O)cc4CC[C@H]3[C@@H]1CC[C@@H]2O [ESTRADIOL]

38%
57%

Report Population Mitotic Cells (%) for every entry below.
1. C=CC(=O)Nc1cccc(Oc2nc(Nc3ccc(N4CCN(C)CC4)cc3OC)ncc2Cl)c1
2. CC(C)CC(=O)Nc1[nH]nc2c1CN(C(=O)C1CCN(C)CC1)C2(C)C [PHA-793887]

1. 83%
2. 78%

# lookup: Population Mitotic Cells (%) of C=CC(=O)Nc1ccc2[nH]c(=O)n(C3CCN(Cc4ccc(-c5nc6cc[nH]c(=O)c6cc5-c5ccccc5)cc4)CC3)c2c1 [Borussertib]
75%
